Assay: toxicity in mice: body weight and observations after IP administration
Format: in vivo
Settings: male mice, 400 mg/kg IP, day 12
measuredProperty: body weight (g)
Give just the number in g; leave the unit off.

Data request: Return reported body weight; argument: `CC(C)c1ccc(-c2cn3nc(N4CCC(CN5CCN(CCO)CC5)CC4)sc3n2)cc1`
Data returned: 40.1

----------
Experiment: toxicity in mice: body weight and observations after IP administration
Format: in vivo
Conditions: male mice, 400 mg/kg IP, day 10
measuredProperty: body weight (g)
Give just the number in g; leave the unit off.

Data request: Return reported body weight; argument: `CC(C)c1ccc(-c2cn3nc(N4CCC(CN5CCN(CCO)CC5)CC4)sc3n2)cc1`
Data returned: 40

----------
Assay: toxicity in mice: body weight and observations after IP administration
Format: in vivo
Settings: female mice, 200 mg/kg IP, day 10
measuredProperty: body weight (g)
Give just the number in g; leave the unit off.

Data request: Return reported body weight; argument: `CC(C)c1ccc(-c2cn3nc(N4CCC(CN5CCN(CCO)CC5)CC4)sc3n2)cc1`
Data returned: 31.2

----------
Assay: toxicity in mice: body weight and observations after IP administration
Format: in vivo
Conditions: male mice, 400 mg/kg IP, day 15
measuredProperty: body weight (g)
Give just the number in g; leave the unit off.

Data request: Return reported body weight; argument: CC(C)c1ccc(-c2cn3nc(N4CCC(CN5CCN(CCO)CC5)CC4)sc3n2)cc1 [Compound E266]
Data returned: 39.3

----------
Test: toxicity in mice: body weight and observations after IP administration
Format: in vivo
Conditions: male mice, 400 mg/kg IP, day 2
measuredProperty: body weight

Data request: Return reported body weight; argument: CC(C)c1ccc(-c2cn3nc(N4CCC(CN5CCN(CCO)CC5)CC4)sc3n2)cc1 [Compound E266]
Data returned: 40 g

----------
Assay: toxicity in mice: body weight and observations after IP administration
Format: in vivo
Conditions: male mice, 100 mg/kg IP, day 6
measuredProperty: body weight (g)
Give just the number in g; leave the unit off.

Data request: Return reported body weight; argument: `CC(C)c1ccc(-c2cn3nc(N4CCC(CN5CCN(CCO)CC5)CC4)sc3n2)cc1`
Data returned: 37.5

----------
Assay: toxicity in mice: body weight and observations after IP administration
Format: in vivo
Conditions: male mice, 100 mg/kg IP, day 4
measuredProperty: body weight (g)
Give just the number in g; leave the unit off.

Data request: Return reported body weight; argument: `CC(C)c1ccc(-c2cn3nc(N4CCC(CN5CCN(CCO)CC5)CC4)sc3n2)cc1`
Data returned: 37.3

----------
Test: toxicity in mice: body weight and observations after IP administration
Type: in vivo
Conditions: male mice, 400 mg/kg IP, day 11
Protocol: Compound (I) was dissolved in 20% hydroxypropylcyclodextrane and the volume of administration (IP) was 10 ml/kg.
measuredProperty: body weight (g)
Give just the number in g; leave the unit off.

Data request: Return reported body weight; argument: `CC(C)c1ccc(-c2cn3nc(N4CCC(CN5CCN(CCO)CC5)CC4)sc3n2)cc1`
Data returned: 39.7

----------
Test: toxicity in mice: body weight and observations after IP administration
Type: in vivo
Settings: female mice, 100 mg/kg IP, day 11
measuredProperty: body weight (g)
Give just the number in g; leave the unit off.

Data request: Return reported body weight; argument: CC(C)c1ccc(-c2cn3nc(N4CCC(CN5CCN(CCO)CC5)CC4)sc3n2)cc1 [Compound E266]
Data returned: 32.6

----------
Test: toxicity in mice: body weight and observations after IP administration
Type: in vivo
Settings: male mice, 100 mg/kg IP, day 3
measuredProperty: body weight
Record the result as number plus unit.

Data request: Return reported body weight; argument: `CC(C)c1ccc(-c2cn3nc(N4CCC(CN5CCN(CCO)CC5)CC4)sc3n2)cc1`
Data returned: 38 g

----------
Assay: toxicity in mice: body weight and observations after IP administration
Assay type: in vivo
Conditions: female mice, 200 mg/kg IP, day 7
measuredProperty: body weight (g)
Give just the number in g; leave the unit off.

Data request: Return reported body weight; argument: `CC(C)c1ccc(-c2cn3nc(N4CCC(CN5CCN(CCO)CC5)CC4)sc3n2)cc1`
Data returned: 31

----------
Test: toxicity in mice: body weight and observations after IP administration
Type: in vivo
Conditions: male mice, 100 mg/kg IP, day 14
measuredProperty: body weight (g)
Give just the number in g; leave the unit off.

Data request: Return reported body weight; argument: `CC(C)c1ccc(-c2cn3nc(N4CCC(CN5CCN(CCO)CC5)CC4)sc3n2)cc1`
Data returned: 38.1

----------
Test: toxicity in mice: body weight and observations after IP administration
Type: in vivo
Settings: female mice, 400 mg/kg IP, day 8
measuredProperty: body weight (g)
Give just the number in g; leave the unit off.

Data request: Return reported body weight; argument: `CC(C)c1ccc(-c2cn3nc(N4CCC(CN5CCN(CCO)CC5)CC4)sc3n2)cc1`
Data returned: 28.7

----------
Experiment: toxicity in mice: body weight and observations after IP administration
Assay type: in vivo
Conditions: male mice, 100 mg/kg IP, day 13
Method: Compound (I) was dissolved in 20% hydroxypropylcyclodextrane and the volume of administration (IP) was 10 ml/kg.
measuredProperty: body weight (g)
Give just the number in g; leave the unit off.

Data request: Return reported body weight; argument: `CC(C)c1ccc(-c2cn3nc(N4CCC(CN5CCN(CCO)CC5)CC4)sc3n2)cc1`
Data returned: 37.7

----------
Experiment: toxicity in mice: body weight and observations after IP administration
Type: in vivo
Conditions: female mice, 400 mg/kg IP, day 15
measuredProperty: body weight (g)
Give just the number in g; leave the unit off.

Data request: Return reported body weight; argument: `CC(C)c1ccc(-c2cn3nc(N4CCC(CN5CCN(CCO)CC5)CC4)sc3n2)cc1`
Data returned: 29.2

----------
Assay: toxicity in mice: body weight and observations after IP administration
Format: in vivo
Settings: male mice, 400 mg/kg IP, day 14
measuredProperty: body weight (g)
Give just the number in g; leave the unit off.

Data request: Return reported body weight; argument: `CC(C)c1ccc(-c2cn3nc(N4CCC(CN5CCN(CCO)CC5)CC4)sc3n2)cc1`
Data returned: 40.2

----------
Assay: toxicity in mice: body weight and observations after IP administration
Type: in vivo
Conditions: female mice, 400 mg/kg IP, day 13
measuredProperty: body weight (g)
Give just the number in g; leave the unit off.

Data request: Return reported body weight; argument: `CC(C)c1ccc(-c2cn3nc(N4CCC(CN5CCN(CCO)CC5)CC4)sc3n2)cc1`
Data returned: 29.8

----------
Test: toxicity in mice: body weight and observations after IP administration
Format: in vivo
Settings: male mice, 200 mg/kg IP, day 12
measuredProperty: body weight
Record the result as number plus unit.

Data request: Return reported body weight; argument: CC(C)c1ccc(-c2cn3nc(N4CCC(CN5CCN(CCO)CC5)CC4)sc3n2)cc1 [Compound E266]
Data returned: 38.7 g

----------
Experiment: toxicity in mice: body weight and observations after IP administration
Assay type: in vivo
Conditions: male mice, 200 mg/kg IP, day 10
measuredProperty: body weight (g)
Give just the number in g; leave the unit off.

Data request: Return reported body weight; argument: `CC(C)c1ccc(-c2cn3nc(N4CCC(CN5CCN(CCO)CC5)CC4)sc3n2)cc1`
Data returned: 37.9

----------
Assay: toxicity in mice: body weight and observations after IP administration
Assay type: in vivo
Conditions: male mice, 100 mg/kg IP, day 2
measuredProperty: body weight (g)
Give just the number in g; leave the unit off.

Data request: Return reported body weight; argument: CC(C)c1ccc(-c2cn3nc(N4CCC(CN5CCN(CCO)CC5)CC4)sc3n2)cc1 [Compound E266]
Data returned: 38.2

----------
Experiment: toxicity in mice: body weight and observations after IP administration
Type: in vivo
Settings: male mice, 200 mg/kg IP, day 5
measuredProperty: body weight (g)
Give just the number in g; leave the unit off.

Data request: Return reported body weight; argument: CC(C)c1ccc(-c2cn3nc(N4CCC(CN5CCN(CCO)CC5)CC4)sc3n2)cc1 [Compound E266]
Data returned: 37.6

----------
Experiment: toxicity in mice: body weight and observations after IP administration
Type: in vivo
Conditions: male mice, 100 mg/kg IP, day 11
measuredProperty: body weight (g)
Give just the number in g; leave the unit off.

Data request: Return reported body weight; argument: CC(C)c1ccc(-c2cn3nc(N4CCC(CN5CCN(CCO)CC5)CC4)sc3n2)cc1 [Compound E266]
Data returned: 37.3

----------
Experiment: toxicity in mice: body weight and observations after IP administration
Format: in vivo
Details: male mice, 100 mg/kg IP, day 1
measuredProperty: body weight (g)
Give just the number in g; leave the unit off.

Data request: Return reported body weight; argument: CC(C)c1ccc(-c2cn3nc(N4CCC(CN5CCN(CCO)CC5)CC4)sc3n2)cc1 [Compound E266]
Data returned: 37.4

----------
Assay: toxicity in mice: body weight and observations after IP administration
Assay type: in vivo
Conditions: female mice, 200 mg/kg IP, day 12
measuredProperty: body weight (g)
Give just the number in g; leave the unit off.

Data request: Return reported body weight; argument: `CC(C)c1ccc(-c2cn3nc(N4CCC(CN5CCN(CCO)CC5)CC4)sc3n2)cc1`
Data returned: 30.6
